# Test system: primary human mesenchymal stem cells (hMSCs)
# test.name: Chondrogenesis induction screen in primary human mesenchymal stem cells (nodule count, Rhodamine B/Nile Red)
# Assay type: cell-based
# recorded.conditions: 144 h, 6 days, concentration required to induce chondrogenesis equivalent to TGF-β3 (10 ng/mL), read-out: Conc (nM) of 100% TGF-β3 activity
# Method: The above synthesized compounds were screened using primary human mesenchymal stem cells (hMSCs) to determine their ability to induce chondrogenesis (process by which cartilage is developed). […] Each compound was dissolved in DMSO as a 10 mM stock and used to prepare compound source plates. […] The nodules imaged (4 images per well at 4× magnification) by excitation at 531 nm and emission at 625 nm and quantified using the CellInsight CX5 (Thermo Scientific). […]
param class (str): category from EC (100% TGF-beta3 activity); see ranges low interval: < 60 nM; middle interval: ≥ 60 nM and < 80 nM; high interval: ≥ 80 nM

Prompt: Please indicate the class for CCCC(=O)Nc1cncc(-c2cnc3[nH]nc(-c4nc5c(-c6ccsc6)nccc5[nH]4)c3c2)c1 based on its EC (100% TGF-beta3 activity).
Response: low interval

Prompt: Now the same for CC(=O)c1ccc(-c2nccc3[nH]c(-c4n[nH]c5ncc(-c6cccnc6)cc45)nc23)s1
Response: high interval

Prompt: Now the same for CCC(=O)Nc1cncc(-c2cnc3[nH]nc(-c4nc5c(-c6cccc(F)c6)nccc5[nH]4)c3c2)c1
Response: high interval

Prompt: Now the same for O=C(Nc1cncc(-c2cnc3[nH]nc(-c4nc5c(-c6cccs6)nccc5[nH]4)c3c2)c1)C1CC1
Response: low interval

Prompt: Now the same for Cc1cn(-c2nccc3[nH]c(-c4n[nH]c5ncc(-c6cncc(NC(=O)CC(C)C)c6)cc45)nc23)cn1
Response: low interval

Prompt: Now the same for CC(C)Nc1cncc(-c2cnc3[nH]nc(-c4nc5c(-c6cc(F)cc(NCCN(C)C)c6)nccc5[nH]4)c3c2)c1
Response: high interval

Prompt: Now the same for Cc1ccncc1-c1cnc2[nH]nc(-c3nc4c(-c5cc(F)cc(CNS(C)(=O)=O)c5)nccc4[nH]3)c2c1
Response: high interval

Prompt: Now the same for CC(C)Nc1cncc(-c2cnc3[nH]nc(-c4nc5c(-c6ccoc6)nccc5[nH]4)c3c2)c1
Response: middle interval

Prompt: Now the same for Nc1cncc(-c2cnc3[nH]nc(-c4nc5c(-c6ccccc6F)nccc5[nH]4)c3c2)c1
Response: low interval

Prompt: Now the same for Cn1cc(-c2cnc3[nH]nc(-c4nc5c(-c6cccc(F)c6)nccc5[nH]4)c3c2)cn1
Response: middle interval

Prompt: Now the same for Cc1ncc(-c2cnc3[nH]nc(-c4nc5c(-c6cccc(F)c6)nccc5[nH]4)c3c2)n1C
Response: high interval

These data points were gathered from patent US9493487B2.
